test: Inhibition of Tel-fused LYN expressed in mouse BAF3 cells
ASSAY ENDPOINT: IC50 (nM)

{"columns": ["INPUT SMILES", "MEASUREMENT UNIT", "IC50"],
 "data": [
  ["COc1cccc(NC(=O)c2ccc(C)c(Nc3nc4ccccc4n3-c3cc(N)ncn3)c2)c1", "nM", 437],
  ["Cc1cccc(NC(=O)c2ccc(C)c(Nc3nc4ccccc4n3-c3cc(NCCN4CCN(C)CC4)ncn3)c2)c1", "nM", 1660],
  ["CCN(CC)CCCCNc1cc(-n2c(Nc3cc(C(=O)Nc4cccc(C(F)(F)F)c4)ccc3C)nc3ccccc32)ncn1", "nM", 140],
  ["Cc1ccc(C(=O)Nc2cccc(C(F)(F)F)c2)cc1Nc1nc2ccccc2n1-c1cc(NCCCN2CCN(C)CC2)ncn1", "nM", 84],
  ["Cc1ccc(NC(=O)c2cccc(C(F)(F)F)c2)cc1Nc1nc2ccccc2n1-c1cc(Cl)ncn1", "nM", 3300]
]}

[P] Cc1ccc(NC(=O)c2cccc(C(F)(F)F)c2)cc1Nc1nc2ccccc2n1-c1cc(NCCCCN)ncn1
[Q] COCCNc1cc(-n2c(Nc3cc(NC(=O)c4cccc(C(F)(F)F)c4)ccc3C)nc3ccccc32)ncn1
Could you please tell me which of these two has the higher IC50: P or Q ? Mark your answer with the label of the selected entry.
P
(P: 457 nM, Q: 126 nM)

###

assay: Inhibition of Tel-fused KDR expressed in mouse BAF3 cells
ASSAY ENDPOINT: IC50 (nM)

Some entries whose results are on file:
{"columns": ["COMPOUND", "IC50 / nM"],
 "data": [
  ["Cc1ccc(NC(=O)c2cccc(C(F)(F)F)c2)cc1Nc1nc2ccccc2n1-c1cc(NCCc2ccccn2)ncn1", 549],
  ["Cc1ccc(NC(=O)c2cccc(C(F)(F)F)c2)cc1Nc1nc2ccccc2n1-c1cc(NCCCC2COCCN2)ncn1 (centres undefined)", 318]
]}

[P] Cc1ccc(NC(=O)c2cccc(C(F)(F)F)c2)cc1Nc1nc2ccccc2n1-c1cc(N[C@H]2CC[C@H](N)CC2)ncn1
[Q] Cc1ccc(C(=O)Nc2cccc(C(F)(F)F)c2)cc1Nc1nc2ccccc2n1-c1cc(N)ncn1
Could you please tell me which of these two has the higher IC50: P or Q ? Mark your answer with the label of the selected entry.
P

###

assay: Inhibition of Tel-fused LYN expressed in mouse BAF3 cells
ASSAY ENDPOINT: IC50 (nM)

{"columns": ["COMPOUND", "IC50 (nM)"],
 "data": [
  ["Cc1ccc(C(=O)Nc2cccc(C(F)(F)F)c2)cc1Nc1nc2ccccc2n1-c1ncnc(NCCCN2CCN(C)CC2)n1", 43],
  ["Cc1ccc(NC(=O)c2cc(C3CC3)n[nH]2)cc1Nc1nc2ccccc2n1-c1cc(N)ncn1", 96],
  ["CCN1CCN(c2cc(C(=O)Nc3ccc(C)c(Nc4nc5ccccc5n4-c4cc(N)ncn4)c3)cc(C(F)(F)F)c2)CC1", 9],
  ["Cc1ccc(C(=O)Nc2cccc(C(F)(F)F)c2)cc1Nc1nc2ccccc2n1-c1cc(NCCCCN(C)C)ncn1", 134],
  ["Cc1ccc(NC(=O)c2cc(OC3CCN(C)CC3)cc(C(F)(F)F)c2)cc1Nc1nc2ccccc2n1-c1cc(N)ncn1", 5]
]}

[P] Cc1ccc(NC(=O)c2cc(CN3CCN(C)CC3)n(C(C)(C)C)n2)cc1Nc1nc2ccccc2n1-c1cc(N)ncn1
[Q] Cc1cccc(NC(=O)c2ccc(C)c(Nc3nc4ccccc4n3-c3cc(NCCCCN(C)C)ncn3)c2)c1
Could you please tell me which of these two has the higher IC50: P or Q ? Mark your answer with the label of the selected entry.
Q
